Data provenance is patent US9144538B2.

Test system: ATRA 4-hydroxylase (CYP) activity of pig liver microsomes
Test: In vitro ATRA 4-hydroxylase activity assay to determine CYP inhibition (pig liver microsomes)
Settings: read-out: IC50 (μM), in vitro 4-hydroxylase inhibition assay; pig liver microsomes, 1 μM ATRA, 90 min at 37° C.
result type: IC50 (µM)
Give bare numbers, in µM.

Dear reader, for each entry below, please note its IC50.
1. c1ccc(Cn2ccnc2)cc1
2. c1ccc(-n2ccnc2)cc1

Result:
1: 77.5; 2: 52.5

###

Molecular target: CYP3A4 (Homo sapiens (Human))
Sequence (P08684 whole entry): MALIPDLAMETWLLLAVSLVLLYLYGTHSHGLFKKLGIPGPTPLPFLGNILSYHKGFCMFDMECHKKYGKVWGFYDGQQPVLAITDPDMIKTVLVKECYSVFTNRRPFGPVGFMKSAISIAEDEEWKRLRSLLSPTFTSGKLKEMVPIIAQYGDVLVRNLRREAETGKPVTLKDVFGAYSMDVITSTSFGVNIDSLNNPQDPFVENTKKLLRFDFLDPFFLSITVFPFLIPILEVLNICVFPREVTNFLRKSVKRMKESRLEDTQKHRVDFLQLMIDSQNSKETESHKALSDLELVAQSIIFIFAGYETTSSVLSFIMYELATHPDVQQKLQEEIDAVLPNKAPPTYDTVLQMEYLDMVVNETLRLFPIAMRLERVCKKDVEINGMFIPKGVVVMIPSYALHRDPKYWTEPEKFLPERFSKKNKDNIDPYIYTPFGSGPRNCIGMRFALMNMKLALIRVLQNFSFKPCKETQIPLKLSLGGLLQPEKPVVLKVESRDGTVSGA
Test: In vitro CYP3A4 inhibition assay (P450-GLO Assay kit)
Details: P450-GLO Assay kit
result type: hit / no hit, inhibition of CYP3A4

c1ccc(-n2ccnc2)cc1; Hit
